So I've got a bunch of compounds here, and I need their h5-HT2A Inhibition of 5-HT-stimulated IP-1 formation % maximum inhibition ± sem values.
- test.system: h5-HT2A receptor (Homo sapiens)
- Sequence (P28223 whole entry): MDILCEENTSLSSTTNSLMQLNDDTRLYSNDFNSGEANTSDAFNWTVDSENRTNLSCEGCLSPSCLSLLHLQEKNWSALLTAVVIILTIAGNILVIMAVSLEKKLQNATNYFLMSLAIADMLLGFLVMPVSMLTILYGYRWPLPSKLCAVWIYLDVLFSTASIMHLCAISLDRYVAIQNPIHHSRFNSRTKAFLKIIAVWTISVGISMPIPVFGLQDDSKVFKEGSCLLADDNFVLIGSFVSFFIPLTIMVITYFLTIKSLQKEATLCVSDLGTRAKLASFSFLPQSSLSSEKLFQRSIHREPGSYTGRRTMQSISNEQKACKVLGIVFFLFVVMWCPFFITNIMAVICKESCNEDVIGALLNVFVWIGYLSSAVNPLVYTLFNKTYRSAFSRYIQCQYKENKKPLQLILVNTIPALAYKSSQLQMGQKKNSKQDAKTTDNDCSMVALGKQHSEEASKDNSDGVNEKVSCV
- assay.info: Inhibition of 5-HT-stimulated IP-1 formation
- Assay type: cell-based
- details: 100 nM 5-HT; normalized to maximal inhibition by ketanserin (10 µM)
Value expressed in %; do not type the unit.

For CNC(C)C(=O)c1ccc(F)cc1 (stereo not drawn) , write its h5-HT2A Inhibition of 5-HT-stimulated IP-1 formation % maximum inhibition ± sem.
97.0

Please report the measured h5-HT2A Inhibition of 5-HT-stimulated IP-1 formation % maximum inhibition ± sem for CNC(C)C(=O)c1ccc(C)cc1 (stereo not drawn)
98.7

For the compound CNC(C)C(=O)c1ccccc1 (stereo not drawn) [Methcathinone, methcathinone, reference compound] , give its reported h5-HT2A Inhibition of 5-HT-stimulated IP-1 formation % maximum inhibition ± sem.
99.63

For CCCC(C(=O)c1ccc2ccccc2c1)N1CCCC1 (stereo not drawn) , write its h5-HT2A Inhibition of 5-HT-stimulated IP-1 formation % maximum inhibition ± sem.
98.18

For the compound CCC(NC)C(=O)c1ccc2c(c1)OCO2 (stereo not drawn) , give its reported h5-HT2A Inhibition of 5-HT-stimulated IP-1 formation % maximum inhibition ± sem.
95.9

Query h5-HT2A Inhibition of 5-HT-stimulated IP-1 formation % maximum inhibition ± sem for CNC(C)Cc1ccc2c(c1)OCO2 (stereo not drawn) [MDMA, 3,4-methylenedioxymethylamphetamine, reference compound]
96.3

Hello, please tell me recorded h5-HT2A Inhibition of 5-HT-stimulated IP-1 formation % maximum inhibition ± sem for this one: CNC(C)C(=O)c1ccc2c(c1)OCO2 (stereo not drawn)
84.7

Give reported h5-HT2A Inhibition of 5-HT-stimulated IP-1 formation % maximum inhibition ± sem value for CN[C@@H](C)Cc1ccccc1 [METH, (+)methamphetamine, reference compound]
100.0

For CCCC(C(=O)c1ccc2c(c1)OCO2)N1CCCC1 (stereo not drawn) , write its h5-HT2A Inhibition of 5-HT-stimulated IP-1 formation % maximum inhibition ± sem.
67.7

* * *

- test.system: h5-HT2C receptor (Homo sapiens, UniProt P28335)
- Sequence (P28335 33-458): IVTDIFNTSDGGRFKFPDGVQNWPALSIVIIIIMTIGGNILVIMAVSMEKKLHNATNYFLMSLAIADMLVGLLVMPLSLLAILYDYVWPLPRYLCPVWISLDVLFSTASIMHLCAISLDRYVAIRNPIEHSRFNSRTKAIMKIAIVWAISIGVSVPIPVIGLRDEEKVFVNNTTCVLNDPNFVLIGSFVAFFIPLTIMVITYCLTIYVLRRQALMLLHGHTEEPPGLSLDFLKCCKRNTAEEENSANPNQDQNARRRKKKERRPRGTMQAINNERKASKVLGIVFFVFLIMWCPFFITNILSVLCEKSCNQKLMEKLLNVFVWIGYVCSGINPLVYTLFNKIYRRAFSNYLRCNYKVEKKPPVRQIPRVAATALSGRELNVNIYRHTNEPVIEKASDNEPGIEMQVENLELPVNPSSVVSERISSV
- assay.info: biochemical
- Format: binding
- details: read-out: Inhibition of radioligand binding Ki ± sem, h5-HT2C [125I]DOI
Would you mind telling me the reported Ki of each entry?

// Input: CCC(NC)C(=O)c1ccc2c(c1)OCO2 (centres unmarked) . Output its Ki only.
41 µM

Return Ki (reported value) for this compound: CNC(C)C(=O)c1ccc(F)cc1 (centres unmarked)
12.6 µM

Supply reported Ki belonging to this compound: CCCC(C(=O)c1ccc2ccccc2c1)N1CCCC1 (centres unmarked)
23.2 µM

Look up Ki of CNC(C)C(=O)c1ccccc1 (centres unmarked) [Methcathinone, methcathinone, reference compound] and report it.
16 µM

Look up and state reported Ki for CCCC(C(=O)c1ccc2c(c1)OCO2)N1CCCC1 (centres unmarked)
107 µM

* * *

- test.system: h5-HT2A receptor (Homo sapiens)
- assay.info: Inhibition of 5-HT-stimulated IP-1 formation
- Format: cell-based
- details: read-out: h5-HT2A Inhibition of 5-HT-stimulated IP-1 formation IC50 ± sem; 100 nM 5-HT
pIC50: −log10 of the molar value.
Label rule, in plain words: pIC50 of 4 and up is rule met, under 4 is rule not met.

Form field: pIC50 at least 4? Entry: CCC(NC)C(=O)c1ccc2c(c1)OCO2 (stereo not drawn)
rule not met

Check the entry CNC(C)C(=O)c1ccc(F)cc1 (stereo not drawn) : does pIC50 equal or exceed 4?
rule met

For this compound, is measured pIC50 4 or higher? CNC(C)C(=O)c1ccccc1 (stereo not drawn) [Methcathinone, methcathinone, reference compound]
rule met

Determine whether this compound has pIC50 no lower than 4: CNC(C)Cc1ccc2c(c1)OCO2 (stereo not drawn) [MDMA, 3,4-methylenedioxymethylamphetamine, reference compound]
rule not met

Quick check, pIC50 >= 4? CCCC(C(=O)c1ccc2c(c1)OCO2)N1CCCC1 (stereo not drawn)
rule not met

Given CCCC(C(=O)c1ccc2ccccc2c1)N1CCCC1 (stereo not drawn) , state whether its pIC50 is at least 4.
rule met

* * *

Please go through the items and note down their pKi.
Quick note: pKi values are minus log10 of concentrations in mol/L.

Give UniProt:P31645 pKi for the following compound: CNC(C)C(=O)c1ccc2c(c1)OCO2 (stereo not shown) [Methylone, 3,4-methylenedioxy-N-methylcathinone]
Sequence (P31645 whole entry): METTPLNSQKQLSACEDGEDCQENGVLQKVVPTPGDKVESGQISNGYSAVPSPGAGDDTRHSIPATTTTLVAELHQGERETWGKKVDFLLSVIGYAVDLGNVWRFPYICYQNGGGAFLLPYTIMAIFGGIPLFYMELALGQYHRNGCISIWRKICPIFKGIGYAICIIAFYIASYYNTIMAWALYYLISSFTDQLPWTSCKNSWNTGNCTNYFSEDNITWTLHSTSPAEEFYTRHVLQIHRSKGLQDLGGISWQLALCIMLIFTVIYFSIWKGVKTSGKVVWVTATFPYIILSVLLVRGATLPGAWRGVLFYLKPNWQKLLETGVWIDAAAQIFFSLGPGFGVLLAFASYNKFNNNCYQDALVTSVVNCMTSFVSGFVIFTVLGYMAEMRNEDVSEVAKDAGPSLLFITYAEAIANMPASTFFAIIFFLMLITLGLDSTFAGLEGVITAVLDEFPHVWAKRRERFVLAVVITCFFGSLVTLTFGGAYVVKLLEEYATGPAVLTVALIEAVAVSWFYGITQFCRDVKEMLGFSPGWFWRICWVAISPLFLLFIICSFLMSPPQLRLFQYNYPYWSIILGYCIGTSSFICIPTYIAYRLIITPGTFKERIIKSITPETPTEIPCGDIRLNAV
4.02

Param request: pKi | system UniProt:P31645 | item OC1(c2ccc(Cl)cc2)c2ccccc2C2=NCCN21 (stereo not shown) [Mazindol, reference compound]
7.59

Recall the reported pKi of CN[C@@H](C)Cc1ccccc1 [METH, (+)methamphetamine, reference compound] when tested on UniProt:P31645.
3.62

Provide UniProt:P31645 pKi reading for CNC(C)C(=O)c1ccc(C)cc1 (stereo not shown) [Mephedrone, 4-methyl-N-methylcathinone] .
4.68

* * *

- test.system: hDAT (Homo sapiens)
- Sequence (Q01959 whole entry, the tested form may be a part): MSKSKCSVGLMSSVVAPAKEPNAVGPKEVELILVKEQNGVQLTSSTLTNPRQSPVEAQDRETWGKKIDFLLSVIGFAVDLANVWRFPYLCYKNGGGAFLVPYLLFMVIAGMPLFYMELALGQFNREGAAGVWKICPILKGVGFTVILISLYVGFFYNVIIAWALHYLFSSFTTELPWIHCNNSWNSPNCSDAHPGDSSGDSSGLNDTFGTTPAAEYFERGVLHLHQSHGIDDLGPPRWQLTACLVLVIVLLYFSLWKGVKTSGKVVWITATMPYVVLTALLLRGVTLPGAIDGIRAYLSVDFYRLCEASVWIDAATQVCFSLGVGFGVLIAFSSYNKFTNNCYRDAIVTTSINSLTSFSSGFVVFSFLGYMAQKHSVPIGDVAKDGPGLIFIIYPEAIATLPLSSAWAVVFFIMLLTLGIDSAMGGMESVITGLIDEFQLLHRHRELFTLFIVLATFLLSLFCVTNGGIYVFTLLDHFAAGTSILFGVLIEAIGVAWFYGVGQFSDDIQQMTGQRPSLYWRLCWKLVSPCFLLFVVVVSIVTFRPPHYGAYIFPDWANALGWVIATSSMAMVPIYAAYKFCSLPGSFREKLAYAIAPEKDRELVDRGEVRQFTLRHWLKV
- assay.info: Superfusion release of preloaded [3H]DA from HEK-hDAT cells
- Format: cell-based
- details: read-out: Drug-induced release of [3H]neurotransmitter EC50 ± sem, hDAT [3H]DA; superfusion, AUC
Please respond with reported EC50 for every item in the list.
Write down the numeric answer in µM and omit the unit.

Report the value of EC50 obtained on hDAT (Homo sapiens) for CNC(C)C(=O)c1ccccc1 (stereo not drawn) [Methcathinone, methcathinone, reference compound] .
3.57

Return reported EC50 for target or system hDAT (Homo sapiens), item CNC(C)C(=O)c1ccc(F)cc1 (stereo not drawn) .
17.8

Enter recorded EC50 with hDAT (Homo sapiens) for CNC(C)Cc1ccc2c(c1)OCO2 (stereo not drawn) [MDMA, 3,4-methylenedioxymethylamphetamine, reference compound] here.
4.8

* * *

- test.system: h5-HT2C receptor (Homo sapiens)
- Sequence (P28335 33-458): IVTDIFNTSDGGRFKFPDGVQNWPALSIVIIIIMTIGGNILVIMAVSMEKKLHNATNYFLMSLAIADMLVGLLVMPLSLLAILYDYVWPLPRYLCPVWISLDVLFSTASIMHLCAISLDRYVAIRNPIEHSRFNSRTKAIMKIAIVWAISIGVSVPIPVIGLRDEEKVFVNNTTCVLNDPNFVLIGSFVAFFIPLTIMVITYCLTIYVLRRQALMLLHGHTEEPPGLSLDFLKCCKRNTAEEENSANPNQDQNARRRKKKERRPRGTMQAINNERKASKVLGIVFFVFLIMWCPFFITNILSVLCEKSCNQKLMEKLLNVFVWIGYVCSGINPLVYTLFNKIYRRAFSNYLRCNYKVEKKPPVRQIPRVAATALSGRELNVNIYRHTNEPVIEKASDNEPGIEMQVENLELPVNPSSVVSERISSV
readout.kind: Kd
Field note: include the unit after the figure.

Specify reported Kd for the compound shown: COc1cc(CC(C)N)c(OC)cc1I (racemic) [[^125I]DOI, reference compound]
4.18 nM

* * *

- test.system: hNET (Homo sapiens)
- Sequence (P23975 whole entry, the tested form may be a part): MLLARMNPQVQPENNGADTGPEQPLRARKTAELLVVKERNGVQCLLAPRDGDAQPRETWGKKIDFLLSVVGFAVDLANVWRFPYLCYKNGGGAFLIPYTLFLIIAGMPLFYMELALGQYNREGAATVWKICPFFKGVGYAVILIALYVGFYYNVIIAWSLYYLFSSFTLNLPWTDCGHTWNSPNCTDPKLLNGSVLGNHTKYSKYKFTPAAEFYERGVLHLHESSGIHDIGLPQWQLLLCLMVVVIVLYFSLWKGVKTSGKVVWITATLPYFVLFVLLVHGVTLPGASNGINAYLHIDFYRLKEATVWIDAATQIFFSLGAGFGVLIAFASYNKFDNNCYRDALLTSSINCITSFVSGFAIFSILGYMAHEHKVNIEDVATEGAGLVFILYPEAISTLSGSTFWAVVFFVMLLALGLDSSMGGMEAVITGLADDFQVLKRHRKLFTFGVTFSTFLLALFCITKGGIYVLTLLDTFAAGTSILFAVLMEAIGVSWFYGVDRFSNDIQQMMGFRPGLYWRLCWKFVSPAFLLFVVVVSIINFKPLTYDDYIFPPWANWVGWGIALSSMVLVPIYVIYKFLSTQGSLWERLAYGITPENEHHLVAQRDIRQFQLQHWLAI
- assay.info: Superfusion release of preloaded [3H]NE from HEK-hNET cells
- Assay type: cell-based
- details: relative to maximal AUC induced by METH (0.3 or 1 µM)
readout.kind: % maximum release ± sem, hNET [3H]NE (%)
Give just the number in %; leave the unit off.

Return % maximum release ± sem, hNET [3H]NE for the following compound: CCCC(C(=O)c1ccc2ccccc2c1)N1CCCC1 (stereo not drawn) [Naphyrone, naphthylpyrovalerone]
36

Return % maximum release ± sem, hNET [3H]NE for the following compound: CNC(C)C(=O)c1ccc(F)cc1 (stereo not drawn) [4-FMC, 4-fluoromethcathinone]
194

Give me measured % maximum release ± sem, hNET [3H]NE, please, for this compound: CN[C@@H](C)Cc1ccccc1 [METH, (+)methamphetamine, reference compound]
92.7

Answer with reported % maximum release ± sem, hNET [3H]NE of CNC(C)C(=O)c1ccccc1 (stereo not drawn) [Methcathinone, methcathinone, reference compound]
149

Supply % maximum release ± sem, hNET [3H]NE value. Item: CNC(C)C(=O)c1ccc(C)cc1 (stereo not drawn) [Mephedrone, 4-methyl-N-methylcathinone]
152

State its % maximum release ± sem, hNET [3H]NE: CCC(NC)C(=O)c1ccc2c(c1)OCO2 (stereo not drawn) [Butylone]
3.6

Please indicate % maximum release ± sem, hNET [3H]NE recorded for CNC(C)C(=O)c1ccc2c(c1)OCO2 (stereo not drawn) [Methylone, 3,4-methylenedioxy-N-methylcathinone]
122

Identify the reported % maximum release ± sem, hNET [3H]NE for the following entry. CCCC(C(=O)c1ccc2c(c1)OCO2)N1CCCC1 (stereo not drawn) [MDPV, 3,4-methylenedioxypyrovalerone]
18

Annotate the compound CNC(C)Cc1ccc2c(c1)OCO2 (stereo not drawn) [MDMA, 3,4-methylenedioxymethylamphetamine, reference compound] with its measured % maximum release ± sem, hNET [3H]NE.
116

Reference source for all entries: paper PMC3692398
